Experiment: Stability of hydrochloride salts of telavancin on storage (HPLC area % of pseudoaglycone and aglycone impurities)
Type: physicochemical
Details: stored at 25° C.; difference between 2-week and initial value
Quantity Measured: Pseudoaglycone of Cmpd 1 (HPLC area %) 2-Week Change

Compound: CCCCCCCCCCNCCN[C@@]1(C)C[C@H](O[C@H]2[C@H](Oc3c4cc5cc3Oc3ccc(cc3Cl)[C@@H](O)[C@@H](NC(=O)[C@@H](CC(C)C)NC)C(=O)N[C@@H](CC(N)=O)C(=O)N[C@H]5C(=O)N[C@H]3C(=O)N[C@H](C(=O)N[C@H](C(=O)O)c5cc(O)c(CNCP(=O)(O)O)c(O)c5-c5cc3ccc5O)[C@H](O)c3ccc(c(Cl)c3)O4)O[C@H](CO)[C@@H](O)[C@@H]2O)O[C@@H](C)[C@H]1O [3.94, telavancin]
Result Value: +0.13 HPLC area %
//
Compound: CCCCCCCCCCNCCN[C@@]1(C)C[C@H](O[C@H]2[C@H](Oc3c4cc5cc3Oc3ccc(cc3Cl)[C@@H](O)[C@@H](NC(=O)[C@@H](CC(C)C)NC)C(=O)N[C@@H](CC(N)=O)C(=O)N[C@H]5C(=O)N[C@H]3C(=O)N[C@H](C(=O)N[C@H](C(=O)O)c5cc(O)c(CNCP(=O)(O)O)c(O)c5-c5cc3ccc5O)[C@H](O)c3ccc(c(Cl)c3)O4)O[C@H](CO)[C@@H](O)[C@@H]2O)O[C@@H](C)[C@H]1O [4.69, telavancin]
Result Value: +0.17 HPLC area %
//
Compound: CCCCCCCCCCNCCN[C@@]1(C)C[C@H](O[C@H]2[C@H](Oc3c4cc5cc3Oc3ccc(cc3Cl)[C@@H](O)[C@@H](NC(=O)[C@@H](CC(C)C)NC)C(=O)N[C@@H](CC(N)=O)C(=O)N[C@H]5C(=O)N[C@H]3C(=O)N[C@H](C(=O)N[C@H](C(=O)O)c5cc(O)c(CNCP(=O)(O)O)c(O)c5-c5cc3ccc5O)[C@H](O)c3ccc(c(Cl)c3)O4)O[C@H](CO)[C@@H](O)[C@@H]2O)O[C@@H](C)[C@H]1O [4.41, telavancin]
Result Value: +0.11 HPLC area %
//
Compound: CCCCCCCCCCNCCN[C@@]1(C)C[C@H](O[C@H]2[C@H](Oc3c4cc5cc3Oc3ccc(cc3Cl)[C@@H](O)[C@@H](NC(=O)[C@@H](CC(C)C)NC)C(=O)N[C@@H](CC(N)=O)C(=O)N[C@H]5C(=O)N[C@H]3C(=O)N[C@H](C(=O)N[C@H](C(=O)O)c5cc(O)c(CNCP(=O)(O)O)c(O)c5-c5cc3ccc5O)[C@H](O)c3ccc(c(Cl)c3)O4)O[C@H](CO)[C@@H](O)[C@@H]2O)O[C@@H](C)[C@H]1O [2.42, telavancin]
Result Value: +0.08 HPLC area %
//
Compound: CCCCCCCCCCNCCN[C@@]1(C)C[C@H](O[C@H]2[C@H](Oc3c4cc5cc3Oc3ccc(cc3Cl)[C@@H](O)[C@@H](NC(=O)[C@@H](CC(C)C)NC)C(=O)N[C@@H](CC(N)=O)C(=O)N[C@H]5C(=O)N[C@H]3C(=O)N[C@H](C(=O)N[C@H](C(=O)O)c5cc(O)c(CNCP(=O)(O)O)c(O)c5-c5cc3ccc5O)[C@H](O)c3ccc(c(Cl)c3)O4)O[C@H](CO)[C@@H](O)[C@@H]2O)O[C@@H](C)[C@H]1O [3.68, telavancin]
Result Value: +0.08 HPLC area %
//
Compound: CCCCCCCCCCNCCN[C@@]1(C)C[C@H](O[C@H]2[C@H](Oc3c4cc5cc3Oc3ccc(cc3Cl)[C@@H](O)[C@@H](NC(=O)[C@@H](CC(C)C)NC)C(=O)N[C@@H](CC(N)=O)C(=O)N[C@H]5C(=O)N[C@H]3C(=O)N[C@H](C(=O)N[C@H](C(=O)O)c5cc(O)c(CNCP(=O)(O)O)c(O)c5-c5cc3ccc5O)[C@H](O)c3ccc(c(Cl)c3)O4)O[C@H](CO)[C@@H](O)[C@@H]2O)O[C@@H](C)[C@H]1O [4.59, telavancin]
Result Value: +0.20 HPLC area %
